Target: T1, thermolysin-cleaved EBOV GP on Jurkat-GP cells (cleaved GP) (Zaire ebolavirus, Makona (GP1 core …, strain))
T1 chain 1: not shown
T1 chain 2: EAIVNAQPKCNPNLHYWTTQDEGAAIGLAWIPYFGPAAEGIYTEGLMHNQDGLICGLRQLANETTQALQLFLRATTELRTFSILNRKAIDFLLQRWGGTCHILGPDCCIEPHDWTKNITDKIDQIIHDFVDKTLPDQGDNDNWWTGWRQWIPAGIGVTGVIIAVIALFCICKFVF

{"binder": "5.6.c3507 (antibody, V domains shown) VH: EVQLVESGGGVVQPGGSLRLSCAASGFTFDDYGMHWVRQAPGKGLEWVSFISGDGYSTYYGDSVKGRFTISRDKSKNSLYLQMNSLRTEDTAFYYCAKDGGSTLTTLLYNWFDSWGQGTLVTVSS VL: DIQMTQSPSSLSASVGDRVTITCRASQSINMYLNWYQQKPGKAPKVLIYGASSLQSGVPSRFSGSGSGTDFTLTISSLQPEDFATYYCQQSYSIPVTFGPGTKVDIK", "binding result": "binds"}
{"binder": "5.6.c2725 (antibody, V domains shown) VH: QVQLQESGPGLVKPSQTLSLTCTVSGGSISSGGYYWSWIRQHPGKGLEWIGYIYYSGSTYYNPSLKSRVSISAGTSKNQFSLKLSSVTAADTAVYYCARAYCGGDCYSLLYYYYGMDVWGQGTTVTVSS VL: QSALTQPASVSGSPGQSITISCTGTSSDVGGYNSVSWYQQHPGKAPKLMIYDVSNRPSGVSDRFSGSKSGNTASLTISGLQAEDEADYYCSSYTSSSTLVFGGGTKLTVL", "binding result": "binds"}
{"binder": "5.6.c3151 (antibody, V domains shown) VH: EVQLVESGGGVVQPGGSLRLSCAASGFDFDDYPMNWVRQAPGKGLELVFLISGDGGSTYSADSVKGRFTISRDNSKNSLYLQMNSLRTEDTALYYCAKDAVDNSGLYYYGMDVWGQGTTVIVSS VL: DIQMTQSPSSVSASVGDRVTINCRASQGISGWLAWYQQKPGKAPKLLIYAASSLQSGVPSRFSGSGSGTDFTLAISSLQPEDLATYYCQQTHSFPFTFGPGTKVGIK", "binding result": "binds"}
